measurement-protocol: Aqueous solubility of the compound at pH 6.9
Format: physicochemical
run-conditions: buffer
property-name: solubility (mg/mL)
Quick note: give the figure in mg/mL, leave out the unit.

Q) Quick one: solubility for `CC(C)(C)CC(=O)Nc1c(F)cc(C(=O)/N=c2\sccn2COP(=O)(O)O)cc1F` ?
A) 8.6

====

measurement-protocol: Ratio of drug level whole brain to plasma in abcb1a-deficient mouse at 1 mg/kg, po after 50 mins
property-name: Kp at 50 min
# output: bare number, no unit

Q) Value lookup for Kp at 50 min; key = `CC(C)(C)CC(=O)Nc1c(F)cc(C(=O)Nc2nccs2)cc1F`
A) 0.8

====

Test system: Caco-2
measurement-protocol: Efflux ratio of permeability from basolateral to apical over apical to basolateral side in human Caco2 cells after 21 to 28 days by LC-MS/MS analysis
property-name: Ratio
Write no unit; give the number alone.

Q) # Ratio lookup, item `CCCC(=O)Nc1ccc(C(=O)Nc2nccs2)cc1`
A) 0.7

Q) Quick one: Ratio of `CC(C)CC(=O)Nc1ccc(C(=O)Nc2nccs2)cc1` ?
A) 0.7

Q) Given the entry `CC(C)(C)CC(=O)Nc1ccc(C(=O)Nc2nccs2)cc1` , report its measured Ratio.
A) 0.7

Q) Need Ratio of `CCCCC(=O)Nc1ccc(C(=O)Nc2nccs2)cc1` , thanks.
A) 0.7

Q) Name the recorded Ratio for `COCCOc1ccc(N2CCN(CCn3ncc4c3nc(N)n3nc(-c5ccco5)nc43)CC2)cc1` .
A) 1.1

Q) // Ratio lookup, key: `Cc1ccccc1C(=O)Nc1ccc(C(=O)Nc2nccs2)cc1`
A) 0.8

Numbers sourced from ChEMBL document CHEMBL1671809.
